Where do these numbers come from? They come from patent US9980943B2.

Recorded CMV-LACZ in Myoblasts (β-galactosidase activity relative to DMSO) by entry
test system: β-galactosidase in CMV-LacZ C2C12 myoblasts; experiment: CMV-LacZ secondary screen in C2C12 myoblasts (β-Gal stabilizing assay); format: cell-based, mouse; conditions: 1 uM; CMV-LacZ C2C12 myoblasts
Answer field: number only, no words.

Record excerpt, results attached:
compound=CC1(C)Cc2ccccc2-c2nc3n(c(=O)c21)CCS3 recorded_value=1.1060
compound="CC(C(=O)Nc1ccc(C#N)cc1)N(C)CC(=O)Nc1cccc(F)c1 (stereo not shown)" recorded_value=1.0723
compound=CN(/C(=N/S(=O)(=O)c1cccs1)c1ccccc1)c1ccccc1 recorded_value=0.8991
compound=CCC(CC)C(=O)Nc1c(C(=O)N2CCN(c3ccccc3)CC2)oc2ccccc12 recorded_value=1.0492
compound=O=S(=O)(NC(=NC1CCCCC1)c1ccccc1F)c1ccccc1 recorded_value=0.9250
compound=CCOC(=O)c1cc(C(=O)OCC)c(=O)[nH]c1SCc1ccccc1 recorded_value=1.1138
compound=O=C(N[C@@H](Cc1c[nH]c2ccccc12)C(=O)O)C1CCN(S(=O)(=O)c2cccs2)CC1 recorded_value=1.0729
compound=CC(C)c1ccc(NC(=O)CN2C(=O)c3ccccc3S2(=O)=O)cc1 recorded_value=1.1345

Exercise: Which measured CMV-LACZ in Myoblasts (β-galactosidase activity relative to DMSO) value corresponds to CCCN(C(=O)c1ccc(S(=O)(=O)N2CCCC2)cc1)C1CCS(=O)(=O)C1 (stereo not shown) ?
Solution: 0.8734

Exercise: Thanks! And `Cc1ccsc1CN(C)CC(=O)Nc1ccc([N+](=O)[O-])cc1Cl` ?
Solution: 1.0617

Exercise: What about `O=c1c2cc(-c3ccccc3)sc2nc2n1N=C(c1ccccc1)CS2` ?
Solution: 0.9696

Exercise: And what about the compound O=C(Nc1ccccc1Cl)C1CCCN1C(=O)OCc1ccccc1 (stereo not shown) ?
Solution: 1.0531

Exercise: Also, `CCCc1nnc(SCC(=O)NC2CCCC2)n1CCOC` please.
Solution: 1.1167

###

test system: β-galactosidase in CMV-LacZ C2C12 myotubes; experiment: CMV-LacZ secondary screen in C2C12 myotubes (β-Gal stabilizing assay); assay type: cell-based, mouse; conditions: 10 uM; C2C12 CMV-LacZ myotubes; fold relative to DMSO
Give y when the value for CMV-LACZ in Myotubes, signal relative to DMSO is at least 1. Give n when it is less.

Solved entries:
molecule="Cc1nc(Nc2ccccc2F)c2oc3ccccc3c2n1 [MLS001215123-01]" discrete_label=y
molecule="Nc1cccc(/C=C/C(=O)O)c1 [MLS000777780-01]" discrete_label=n
molecule="O=C1Nc2ccccc2/C1=C/c1ccccc1F [MLS001202389-01]" discrete_label=y

Exercise: Determine whether this molecule has CMV-LACZ in Myotubes, signal relative to DMSO no lower than 1: CCOc1ccc(Br)cc1S(=O)(=O)Nc1ccc(C(=O)Nc2ccccc2OC)cc1 [MLS000418650-01]
Solution: y

Exercise: And CCN(CC)C(=O)c1sc2nc(-c3ccc(OC)cc3)cn2c1C [MLS000089464-01] ?
Solution: n

###

Here, each record is paired with measured Burkin Assay in Myoblasts, signal relative to DMSO data.
tested on: α7 integrin (LacZ reporter in α7βgal+/− myoblasts); test: Myoblast α7+/LacZ integrin FDG assay (Burkin assay in myoblasts, 96-well); assay type: cell-based, mouse; conditions: 20 uM; α7+/LacZ myoblasts, 96-well
Provide a numeric answer; units are not to be included.

Example entries begin here.
molecule="CCOC(=O)c1nnn(-c2nonc2OC)c1-c1ccccc1 [MLS000045588-01]" recorded_value=1.003
molecule="CSc1ccc(S(=O)(=O)NCc2ccccc2)cc1 [MLS000531177-01]" recorded_value=1.014
molecule="N#Cc1ccccc1S(=O)(=O)N1CCN(C(=O)C2CCCCC2)CC1 [MLS002251986-01]" recorded_value=0.9793
molecule="CC(C(=O)Nc1ccc(C#N)cc1)N(C)CC(=O)Nc1cccc(F)c1 (stereo not drawn) [MLS001033255-01]" recorded_value=0.985
molecule="CC(C)(C)NC(=O)NC(=O)CN1CCN(Cc2ccccc2)CC1 [MLS001006302-01]" recorded_value=0.973

Exercise: Form: Entry = CCCCNC(=O)CSc1nnc(Cc2ccc(Cl)c(Cl)c2)c(=O)[nH]1 [MLS001177259-01] | System = α7 integrin (LacZ reporter in α7βgal+/− myoblasts) | Burkin Assay in Myoblasts, signal relative to DMSO = ____
Solution: 0.7694

Exercise: // same read-out, input: Cc1cc([N+](=O)[O-])ccc1NC(=O)C(C)N1CCN(c2ccccn2)CC1 (stereo not drawn) [MLS000764729-01]
Solution: 0.9581

Exercise: Same question, Cc1ccccc1-n1c(Cc2cccs2)n[nH]c1=S [MLS000568234-01] this time
Solution: 1.106

Exercise: And then O=C(O)c1csc(-c2cccs2)n1 [MLS000760876-01] , what is it?
Solution: 1.102

###

system: β-galactosidase in CMV-LacZ C2C12 myoblasts; experiment: CMV-LacZ secondary screen in C2C12 myoblasts (β-Gal stabilizing assay); format: cell-based, mouse; conditions: 40 uM; CMV-LacZ C2C12 myoblasts
Parameter CMV-LACZ in Myoblasts (β-galactosidase activity relative to DMSO): see the listing below.
API doc: respond with a numeric literal and nothing else, no unit.

# example entries with known answers
compound=O=C(N/N=C/c1c[nH]c2ccccc12)c1cc(Cl)ccc1O recorded_value=1.0778
compound="O=C(O)C(Cc1ccc(O)cc1)N1C(=O)c2ccccc2C1=O (stereo not shown)" recorded_value=0.9570

Exercise: Request - read-out CMV-LACZ in Myoblasts (β-galactosidase activity relative to DMSO) | tested on β-galactosidase in CMV-LacZ C2C12 myoblasts | compound `Cc1nc(Nc2ccccc2F)c2oc3ccccc3c2n1`
Solution: 1.0098

Exercise: Same thing, different compound: `CC1(C)Cc2ccccc2-c2nc3n(c(=O)c21)CCS3`
Solution: 0.7800

Exercise: Again, but for CC1(C)Cc2c(cnn2-c2cccc(F)c2)C(NC(=O)CCc2cnccn2)C1 (stereo not shown)
Solution: 1.2270

Exercise: Check O=CN1CCN(C(=O)CC(c2ccccc2)c2cc(Br)ccc2O)CC1 (stereo not shown) too.
Solution: 1.1100

###

tested on: β-galactosidase in CMV-LacZ C2C12 myotubes; assay: CMV-LacZ secondary screen in C2C12 myotubes (β-Gal stabilizing assay); assay type: cell-based, mouse; conditions: 10 uM; C2C12 CMV-LacZ myotubes; fold relative to DMSO
Short version: CMV-LACZ in Myotubes, signal relative to DMSO at least 0.9 is TRUE, less is FALSE.

The examples below pair each entry with its known result.
compound=COC(=O)c1ccc(N=Nc2ccccc2)cc1 discrete_label=FALSE
compound="Cc1ccc(S(=O)(=O)N2CN(CC3CCCO3)c3nc4ccccc4nc32)c(C)c1 (stereo not shown)" discrete_label=TRUE
compound="O=C(NCc1ccccc1)C(c1c(F)cccc1Cl)N(C(=O)c1csnn1)C1CC1 (stereo not shown)" discrete_label=TRUE
compound=O=C(N/N=C/c1c[nH]c2ccccc12)c1cc(Cl)ccc1O discrete_label=TRUE
compound=CC(=O)Nc1ccc(NC(=O)c2cc(=O)c3cc(C)cc(C)c3o2)cc1 discrete_label=FALSE

Exercise: Is CMV-LACZ in Myotubes, signal relative to DMSO at least 0.9? Consider `CCCCN(CCCC)CCNC(=O)c1cn(C)c2ccc(S(=O)(=O)N(C)C3CCCCC3)cc2c1=O`
Solution: FALSE

Exercise: Proceed to `Cc1nnc(SCC(=O)c2ccc(Br)cc2)s1`
Solution: TRUE

Exercise: Check `Cc1noc(C)c1COc1ccc(C(=O)NCCc2ccccn2)cc1` too.
Solution: FALSE

Exercise: Next up: CC(OC(=O)c1cc(-c2cccnc2)nc2ccccc12)C(=O)Nc1ccc2ccccc2c1 (stereo not shown)
Solution: FALSE

Exercise: Now this one: `Cc1cccn2c(=O)c3cc(C(=O)NC4CCCCC4)n(C)c3nc12`
Solution: TRUE

Exercise: Next: `CCOC(=O)c1sc(=N)n(-c2ccc(OC)cc2)c1C`
Solution: TRUE

Exercise: Also, `CCCNC(=S)N1CCC(NC(=O)c2ccc(OC)cc2)CC1` please.
Solution: FALSE

Exercise: Now consider `CCCCN(CC)Cc1ccc(CNC(=S)Nc2ccccc2F)o1` and answer again.
Solution: FALSE

Exercise: Next up: `CCCS(=O)(=O)c1nc(S(=O)(=O)c2ccc(C)cc2)c(N2CCCC2)s1`
Solution: TRUE

Exercise: Let us now turn to `N#Cc1ccc(Sc2nc3ccccc3[nH]2)cc1C#N`
Solution: TRUE

Exercise: Record: `O=C(Cn1cccc1C(=O)c1ccccc1)NCCCc1ccccc1`
Solution: TRUE

Exercise: Then this compound: CN(CCC1CCCCO1)C(=O)CCc1nnc(CCCCc2ccccc2)o1 (stereo not shown)
Solution: TRUE
